# credit: patent US20250179187A1

- testedOn: T1, human PD-L2 antigen (Homo sapiens, UniProt Q9BQ51)
- T1 sequence (Q9BQ51 20-273): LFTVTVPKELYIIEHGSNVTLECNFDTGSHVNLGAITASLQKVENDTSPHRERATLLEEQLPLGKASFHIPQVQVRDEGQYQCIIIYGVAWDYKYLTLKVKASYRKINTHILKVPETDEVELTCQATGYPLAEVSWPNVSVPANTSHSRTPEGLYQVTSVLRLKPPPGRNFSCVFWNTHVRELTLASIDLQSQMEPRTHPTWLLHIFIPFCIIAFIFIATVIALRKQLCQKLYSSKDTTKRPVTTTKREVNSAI
- procedureSummary: Single cycle kinetics on Biacore 8K, binding to human PD-L2 antigen
- conditionsUsed: Table 3; preferred embodiments by Biacore
measurementLabel: kd (s⁻¹)
# output: bare number, implied unit s⁻¹

Noted for VH0/VK0: chimeric anti-PD-L2 antibody, mouse Fab on human IgG1 backbone; SEQ ID NO: 1/SEQ ID NO: 9 (antibody, V domains shown, human IgG1 constant regions) VH: QVQLQQSGAELVRPGTSVKVSCKASGYAFSNYFIEWVKQRPGQGLEWIGLNIPGSGGSNYAEKFKGKATLTADKSSSTAYMQLSSLTSEDSAVYFCARRRLPPDWYFDVWGTGTTVTVSS VL: DVVMTQTPLSLPVSLGDQASISCRSSQSLVHSDGNTYLHWYLQKPGQSPKLLIYKVSNRFSGVPDRFSGSGSGTDFTLKISRVEAEDLGVYFCSQSTHVPWTFGGGTKLEIK : its kd reads 9.72e-05
